B1: HDV Ribozyme (parent)
chain: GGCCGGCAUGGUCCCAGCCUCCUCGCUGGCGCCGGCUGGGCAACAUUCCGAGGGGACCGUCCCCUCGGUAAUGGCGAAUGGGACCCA

# Variants of: B1
# procedure-summary: self-cleavage, relative activity (ratio to wild type); higher = more cleavage; co-transcriptional
Binary classification by self-cleavage, with 0.2 as an inclusive lower bound for 1; all other cases are 0.

Example entries and their recorded answers appear below.
>>> class_name("G68A C75A")
0
>>> class_name("G68U A77C")
1
>>> class_name("G25A G29C")
0
>>> class_name("U60A G74U")
1
>>> class_name("G1A C66G")
1

Ask | self-cleavage >= 0.2 for C21U C24G ?
Reply | 0

Ask | Same thing, different variant: U20C G50A
Reply | 1
